- test.summary: luminescence decrease from intact luciferase reporter – cell-based, single concentration, SaOS-2, counter-screen for Mdm2/MdmX interaction inhibitor project, confirmation (AID 504607);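 note: p53-null SaOS-2 cells with luciferase driven by a doxycycline-inducible promoter; compound on cells about two nights before reading with doxycycline added after day one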
- experimental.conditions: SaOS-2 full-length luciferase counterscreen, at 8 µM, hits give high values
Screen size: about 6,200 compounds; about 4,800 (77%) were called active. The set was probably picked from earlier hits. The list is a sample of the results.
measure: inhibition (%)

[[record]]
compound = "COc1cccc(-c2nnc(NC(=O)c3ccc(S(=O)(=O)N(CC(C)C)CC(C)C)cc3)o2)c1"
reported_measurement = 24.3

[[record]]
compound = "COc1cccc(/C=N/Nc2cc(C)nc(-c3ccccc3O)n2)c1O"
reported_measurement = 55.6

[[record]]
compound = "Clc1ccc2c(c1)C1=C(C(c3ccncc3)O2)C(c2ccc(Br)cc2)n2ncnc2N1 (stereo unspecified)"
reported_measurement = 67.2

[[record]]
compound = "COc1ccc(-c2cc(C(F)(F)F)nc(S(C)(=O)=O)n2)cc1OC"
reported_measurement = 24.3

[[record]]
compound = "COc1cccc2sc(N(CCCN(C)C)C(=O)C(c3ccccc3)c3ccccc3)nc12"
reported_measurement = 24.8

[[record]]
compound = "Cc1ccc(C2CC(=O)NC(SCC(=O)OCc3ccccc3)=C2C#N)o1 (stereo unspecified)"
reported_measurement = 55.9

[[record]]
compound = "COc1cccc2sc(N(CCCN(C)C)C(=O)CCS(=O)(=O)c3ccccc3)nc12"
reported_measurement = 21.2

[[record]]
compound = "CC1(C)CCSC(/C=C/c2ccccc2)=N1"
reported_measurement = 30.5

[[record]]
compound = "Cc1nc(/N=C(\\N)NC(=O)NC2CCCCC2)nc2ccccc12"
reported_measurement = 34.4

[[record]]
compound = "CC(NC(=O)c1ccc(N2CCNCC2)c([N+](=O)[O-])c1)C12CC3CC(CC(C3)C1)C2 (stereo unspecified)"
reported_measurement = 56.5

[[record]]
compound = "Cc1nc(N=C(N)N)nc2c(C)cccc12"
reported_measurement = 63.3

[[record]]
compound = "O=C(NC(=O)c1ccccc1N1CCCCC1)Nc1ccc(Br)cc1"
reported_measurement = 86.3

[[record]]
compound = "CC1(C)CC(N2CCN(C(c3ccccc3)c3ccccc3)CC2)=CC(=[N+]2CCCCC2)C1"
reported_measurement = 55.6

[[record]]
compound = "Cc1cccc(NC(=O)c2nc(S(=O)(=O)Cc3ccccc3)ncc2Cl)c1"
reported_measurement = 50.9

[[record]]
compound = "CN1CCN(CCCNC(=O)c2ccc(/C=C3\\Oc4ccccc4N(Cc4ccc(Cl)cc4)C3=O)cc2)CC1"
reported_measurement = 62.6

[[record]]
compound = "O=C(CC(O)(C(F)(F)F)C(F)(F)F)Nc1ccc(Cl)c(Cl)c1"
reported_measurement = 58.1

[[record]]
compound = "CCc1ccc(N(CC)c2ncnc3nc[nH]c23)cc1"
reported_measurement = 41.2

[[record]]
compound = "Cc1cccc(CS(=O)(=O)c2ncc(Cl)c(C(=O)Nc3ccc(F)cc3)n2)c1"
reported_measurement = 51.2

[[record]]
compound = "Cc1noc(C)c1-c1ccc2ncnc(NC(C)c3ccco3)c2c1 (stereo unspecified)"
reported_measurement = 59.8

[[record]]
compound = "Cn1cc([N+](=O)[O-])c(C(=O)Nc2cnn(Cc3ccc(F)cc3)c2)n1"
reported_measurement = 74.9

[[record]]
compound = "CC[n+]1cc(C)ccc1/C=C/c1ccc(N(C)C)cc1"
reported_measurement = 37.8

